Reference source for all entries: patent US20120259123A1

Some compounds, each annotated with its measured pEC50.
- target.entity: human EP2 receptor (Homo sapiens, UniProt P43116)
- Sequence (P43116 whole entry): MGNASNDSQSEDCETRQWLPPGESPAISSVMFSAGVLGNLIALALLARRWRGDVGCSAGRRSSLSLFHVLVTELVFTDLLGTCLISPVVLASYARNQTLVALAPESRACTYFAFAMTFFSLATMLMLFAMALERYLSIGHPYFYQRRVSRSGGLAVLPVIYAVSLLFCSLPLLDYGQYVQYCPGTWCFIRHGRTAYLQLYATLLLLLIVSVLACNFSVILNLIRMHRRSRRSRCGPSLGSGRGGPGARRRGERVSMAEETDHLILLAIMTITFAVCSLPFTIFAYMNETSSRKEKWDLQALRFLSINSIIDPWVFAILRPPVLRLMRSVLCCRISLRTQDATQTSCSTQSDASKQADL
- assay.method.text: Measurement of EP2 agonist activity (cAMP amount in cells)
- details: HEK 293 cells expressing human EP2 receptor, cAMP increase, 30 minutes
Counter-ions that a name gives are not always drawn.
Note on pEC50: it is the negative log10 of concentration, concentration in mol/L.

Some solved entries appear below for comparison.
CC(C)(C)c1ccc(CN(Cc2cccc(NCC(=O)O)n2)S(=O)(=O)c2ccccn2)cc1 [Example 23, hydrochloride]; 8.57
CCC(C)(C)c1ccc(CN(Cc2cccc(NCC(=O)O)n2)S(=O)(=O)c2ccccn2)s1; 8.15
CC(C)(CCCC(F)(F)F)c1ccc(CN(Cc2cccc(NCC(=O)O)n2)S(=O)(=O)c2ccccn2)cc1; 8.39
CCCCC1(c2ccc(CN(Cc3cccc(NCC(=O)O)n3)S(=O)(=O)c3ccccn3)cc2)CC1 [Example 9, hydrochloride]; 8.31

Task: Look up pEC50 for this compound: "CCC1(c2ccc(CN(Cc3cccc(NCC(=O)O)n3)S(=O)(=O)c3ccccn3)cc2)CC1"
Result: 8.27
